From: patent US10336729B2

Each entry below lists one item and its recorded pIC50 value.
- test_target: AOC3 (Homo sapiens (Human))
- Sequence (Q16853 whole entry): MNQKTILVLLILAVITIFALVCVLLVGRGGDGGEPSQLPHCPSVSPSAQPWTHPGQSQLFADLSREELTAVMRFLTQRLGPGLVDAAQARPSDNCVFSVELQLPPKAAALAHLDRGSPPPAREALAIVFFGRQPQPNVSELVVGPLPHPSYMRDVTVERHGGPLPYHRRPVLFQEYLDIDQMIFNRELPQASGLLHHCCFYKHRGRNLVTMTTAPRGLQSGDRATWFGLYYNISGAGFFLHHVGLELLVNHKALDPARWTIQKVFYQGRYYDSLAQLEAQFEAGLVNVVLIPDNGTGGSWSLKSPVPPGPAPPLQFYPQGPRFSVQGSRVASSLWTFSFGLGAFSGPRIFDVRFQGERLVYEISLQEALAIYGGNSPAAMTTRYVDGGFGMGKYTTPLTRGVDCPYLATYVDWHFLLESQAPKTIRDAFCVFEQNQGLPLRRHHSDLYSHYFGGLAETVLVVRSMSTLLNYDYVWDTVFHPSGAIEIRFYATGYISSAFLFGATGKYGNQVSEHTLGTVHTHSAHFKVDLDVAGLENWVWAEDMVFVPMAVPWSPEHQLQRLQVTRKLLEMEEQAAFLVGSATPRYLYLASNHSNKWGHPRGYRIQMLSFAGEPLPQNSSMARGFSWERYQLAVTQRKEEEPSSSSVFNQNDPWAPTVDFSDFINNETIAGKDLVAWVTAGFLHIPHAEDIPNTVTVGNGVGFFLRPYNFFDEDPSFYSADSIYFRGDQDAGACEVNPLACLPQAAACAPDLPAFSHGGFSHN
- assay_explanation: MAO-Glo AOC3 assay
- Type: biochemical
- assay_conditions: recombinant CHO cells overexpressing AOC3 enzyme
pIC50: −log10 of the molar value.
property: pIC50

> print(dat)
                               record.smiles  experimental.value
 1  N#Cc1ccc(N2CCN(c3cc(COC(=O)NC(=N)N)c(F)cc3C#N)CC2)cc1                6.41
 2  N#Cc1ccc(COC(=O)NC(=N)N)c(F)c1N1CCC(c2nnco2)CC1                7.48
 3  N#Cc1ccc(COC(=O)NC(=N)N)c(F)c1N1CC=C(c2ncco2)CC1                7.77
 4  Cc1cccc(N2CCN(c3c(C#N)ccc(COC(=O)NC(=N)N)c3F)CC2)c1                7.70
 5  CS(=O)(=O)N1CCC(C2CN(c3c(C#N)ccc(COC(=O)NC(=N)N)c3F)C2)CC1                7.62
 6  N#Cc1ccc(COC(=O)NC(=N)N)c(F)c1N1CCN(c2ccncc2)CC1                8.15
 7  COc1ncc(N2CCN(c3cc(COC(=O)NC(=N)N)cc(F)c3C#N)CC2)cn1                7.15
 8  Cc1ccc(N2CCN(c3c(C#N)ccc(COC(=O)NC(=N)N)c3F)CC2)nn1                7.26
 9  CS(=O)(=O)c1ccc(N2CCN(c3c(C#N)ccc(COC(=O)NC(=N)N)c3F)CC2)c(F)c1                7.34
10  N#Cc1ccc(COC(=O)NC(=N)N)c(F)c1N1CCN(c2ccccc2F)CC1                6.82
11  N#Cc1ccc(COC(=O)NC(=N)N)c(F)c1N1CCN(c2ncccn2)CC1                7.35
12  Cc1ccc(N2CCN(c3c(C#N)ccc(COC(=O)NC(=N)N)c3F)CC2)cc1C                6.83
13  N#Cc1ccc(COC(=O)NC(=N)N)c(F)c1N1CCC(C2CCN(S(N)(=O)=O)CC2)CC1                8.05
